tested on: Plutella xylostella; assay: Insecticidal effect test for Plutella xylostella of Chinese cabbage; type: in vivo; conditions: 500 ppm emulsion agent sprayed on Chinese cabbage seedlings; 3rd instar larvae; 5 days after insect release; 25° C.; agony insects counted as dead
MEASURED_METRIC: insecticidal rate (%)
Quick note: give the figure in %, leave out the unit.

>>> numeric_value("CCOCN(C(=O)Cc1ccncc1S(=O)(=O)CC)c1ccc(C(F)(F)F)cc1 [Compound B, reference compound]")
50

For this compound ( CC[S+]([O-])c1c(C(=O)N(COC)c2ccc(C(F)(F)F)cc2)nc2ccc(C(F)(F)F)cn12 (stereo not shown) ), measured insecticidal rate is 100

// insecticidal rate lookup, compound = "CCOCN(C(=O)c1nc2ccc(Cl)cn2c1S(=O)(=O)CC)c1ccc(C(F)(F)F)cc1" , result: 100

# insecticidal rate of "CCS(=O)(=O)c1c(C(=O)N(CS(C)(=O)=O)c2ccc(C(F)(F)F)cc2)nc2ccc(C(F)(F)F)cn12" = 100
